Target sequence: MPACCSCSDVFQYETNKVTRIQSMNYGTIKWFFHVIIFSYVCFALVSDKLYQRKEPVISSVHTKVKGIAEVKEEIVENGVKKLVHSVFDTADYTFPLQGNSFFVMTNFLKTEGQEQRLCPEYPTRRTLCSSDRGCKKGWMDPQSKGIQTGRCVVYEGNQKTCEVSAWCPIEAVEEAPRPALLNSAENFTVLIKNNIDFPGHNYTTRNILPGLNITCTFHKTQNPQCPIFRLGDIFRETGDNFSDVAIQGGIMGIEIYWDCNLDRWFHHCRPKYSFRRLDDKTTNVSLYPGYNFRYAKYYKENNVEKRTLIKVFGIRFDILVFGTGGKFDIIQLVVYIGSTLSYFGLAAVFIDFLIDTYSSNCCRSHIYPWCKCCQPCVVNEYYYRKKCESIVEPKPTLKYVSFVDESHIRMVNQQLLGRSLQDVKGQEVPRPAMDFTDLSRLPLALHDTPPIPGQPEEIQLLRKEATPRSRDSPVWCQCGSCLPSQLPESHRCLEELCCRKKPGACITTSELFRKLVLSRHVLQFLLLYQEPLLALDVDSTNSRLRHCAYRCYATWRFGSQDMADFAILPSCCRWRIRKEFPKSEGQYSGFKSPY
Below: compounds with pIC50 recorded for the protein given by its sequence in separate published works.
Please express pIC50 as -log10 of the molar concentration.

// assay the protein given by its sequence, entry Cc1nn(-c2ncc(Cl)cc2Cl)c(C)c1CC(=O)NCc1ccc(F)cc1Cl , pIC50 value = 6.70

// assay the protein given by its sequence, entry Cc1ccc(-n2nc(C)c(CC(=O)NCc3ccc(F)cc3Cl)c2C)cc1 , pIC50 value = 6.90

// assay the protein given by its sequence, entry O=C(c1cccc(C(F)(F)F)c1Cl)N1CCn2c(nnc2C2CC2)C1 , pIC50 value = 7.50

// assay the protein given by its sequence, entry O=C(c1cccc(C(F)(F)F)c1Cl)N1CCn2c(I)cnc2C1 , pIC50 value = 8.40

// assay the protein given by its sequence, entry CCN1C(=O)CC[C@@H]1C(=O)NCc1ccc(Cl)cc1C , pIC50 value = 6.90

// assay the protein given by its sequence, entry Cc1c(Cl)cccc1CNC(=O)[C@H]1CCC(=O)N1C , pIC50 value = 7.00

// assay the protein given by its sequence, entry O=C(c1ccc(F)cc1Cl)N1CCn2c(nnc2-c2cnccn2)C1 , pIC50 value = 8.30

// assay the protein given by its sequence, entry CCCN1C(=O)CC[C@H]1C(=O)NCc1ccc(F)cc1Cl , pIC50 value = 6.80

// assay the protein given by its sequence, entry Cc1c(Cl)cccc1CNC(=O)[C@@H]1CN(C)C(=O)N1C , pIC50 value = 8.20

// assay the protein given by its sequence, entry Cn1ccnc1-c1nnc2n1CCN(C(=O)c1ccc(F)cc1Cl)C2 , pIC50 value = 6.50

// assay the protein given by its sequence, entry Cc1nn(-c2cccc(Cl)c2)c(C)c1CC(=O)NCc1ccc(F)cc1Cl , pIC50 value = 6.50

// assay the protein given by its sequence, entry Cc1noc(C)c1CC(=O)NCc1cccc(Cl)c1F , pIC50 value = 6.70

// assay the protein given by its sequence, entry Cc1ccc(Cl)cc1CNC(=O)Cc1c(C)nn(-c2ccccc2)c1C , pIC50 value = 6.90

// assay the protein given by its sequence, entry CCc1ccccc1N1CCN(Cc2ccc(F)cc2Cl)C(=O)C1=O , pIC50 value = 8.00

// assay the protein given by its sequence, entry Cc1ccccc1-c1cnc2n1CCN(C(=O)c1cccc(C(F)(F)F)c1Cl)C2 , pIC50 value = 7.00

// assay the protein given by its sequence, entry Cc1ccc(F)c(CNC(=O)Cc2c(C)n[nH]c2C)c1Cl , pIC50 value = 7.10

// assay the protein given by its sequence, entry CN1C(=O)CC[C@H]1C(=O)NCc1ccc(F)c(C(F)(F)F)c1Cl , pIC50 value = 8.50

// assay the protein given by its sequence, entry CCN1C(=O)OC[C@H]1C(=O)NCc1ccc(F)cc1Cl , pIC50 value = 7.00

// assay the protein given by its sequence, entry CN1C(=O)N(c2ccnn2C)C[C@H]1C(=O)NCc1ccc(F)c(F)c1Cl , pIC50 value = 7.70

// assay the protein given by its sequence, entry Cc1nn(CC(C)(C)O)c(C)c1CC(=O)NCc1cccc(Cl)c1C , pIC50 value = 6.80

// assay the protein given by its sequence, entry Cc1nn(CCN(C)CCO)c(C)c1CC(=O)NCc1ccc(F)cc1Cl , pIC50 value = 6.70

// assay the protein given by its sequence, entry Cc1n[nH]c(C)c1CC(=O)NCc1cccc(Cl)c1C , pIC50 value = 8.30

// assay the protein given by its sequence, entry Cc1nn(C(C)(C)C)c(C)c1CC(=O)NCc1ccc(F)cc1Cl , pIC50 value = 6.40

// assay the protein given by its sequence, entry O=C(Cc1cn(CCNCCO)nc1C(F)(F)F)NCc1ccc(F)cc1Cl , pIC50 value = 6.20

// assay the protein given by its sequence, entry Cc1n[nH]c(C)c1CC(=O)NCc1cc(Cl)ccc1Cl , pIC50 value = 6.50

// assay the protein given by its sequence, entry Cn1ncc(F)c1CC(=O)NCc1ccc(Cl)cc1Cl , pIC50 value = 7.30

// assay the protein given by its sequence, entry CN1C[C@@H](C(=O)NCc2ccc(F)cc2C(F)(F)F)N(C)C1=O , pIC50 value = 7.30

// assay the protein given by its sequence, entry N#Cc1c(F)cccc1N1CCN(Cc2ccc(F)cc2Cl)C(=O)C1=O , pIC50 value = 6.20

// assay the protein given by its sequence, entry Cc1cccc(N2CCN(Cc3ccc(F)cc3Cl)C(=O)C2=O)c1F , pIC50 value = 6.80

// assay the protein given by its sequence, entry O=C(c1ccc(F)cc1Cl)N1CCn2c(Br)nnc2C1 , pIC50 value = 6.50

// assay the protein given by its sequence, entry O=C1C(=O)N(c2ccccc2-c2ccccc2)CCN1Cc1ccc(F)cc1Cl , pIC50 value = 6.90

// assay the protein given by its sequence, entry C[C@H]1CN(Cc2ccc(Cl)cc2Cl)C(=O)C(=O)N1c1ccccc1 , pIC50 value = 6.80

// assay the protein given by its sequence, entry O=C(c1cccc(C(F)(F)F)c1Cl)N1CCN(c2ccc(F)cc2F)C(=O)C1 , pIC50 value = 7.20

// assay the protein given by its sequence, entry Cc1nn(CC2CCCCC2)c(C)c1CC(=O)NCc1ccc(F)cc1Cl , pIC50 value = 6.20

// assay the protein given by its sequence, entry CC(c1ccccc1)N1CCN(C(=O)c2cccc(C(F)(F)F)c2Cl)CC1=O (centres undefined) , pIC50 value = 7.50

// assay the protein given by its sequence, entry O=C1C(=O)N(c2cccc(N3CCOCC3)c2)CCN1Cc1ccc(F)cc1Cl , pIC50 value = 6.60

// assay the protein given by its sequence, entry CN1C[C@@H](C(=O)NCc2ccc(F)c(F)c2Cl)N(C)C1=O , pIC50 value = 8.50

// assay the protein given by its sequence, entry COc1cccc(N2CCN(Cc3ccc(F)cc3Cl)C(=O)C2=O)c1Cl , pIC50 value = 7.60

// assay the protein given by its sequence, entry Cn1ncc(Cl)c1CC(=O)NCc1ccc(F)c(F)c1Cl , pIC50 value = 7.50

// assay the protein given by its sequence, entry CN1C(=O)N(c2ccnn2C)C[C@H]1C(=O)NCc1ccc(Cl)cc1Cl , pIC50 value = 8.00

// assay the protein given by its sequence, entry Cc1nn(Cc2ccccn2)c(C)c1CC(=O)NCc1ccc(F)cc1Cl , pIC50 value = 6.40

// assay the protein given by its sequence, entry O=C1C(=O)N(c2cccc(Cl)c2N2CCOCC2)CCN1Cc1ccc(F)cc1Cl , pIC50 value = 7.40

// assay the protein given by its sequence, entry CCOc1cccc(-n2cc(CC(=O)NCc3ccc(F)cc3Cl)cn2)n1 , pIC50 value = 5.90
